# TEST_SYSTEM: Replication protein A 70 kDa DNA-binding subunit (Homo sapiens)
# ASSAY_OVERVIEW: Binding affinity to human RPA70N assessed as inhibition of interaction with FITC-Ahx-DFTADDLEELDTLAS-NH2 after 1 hr by fluorescence polarization anisotropy assay
MEASURED_ENDPOINT: Kd (µM)

Completed entries (count: 4):
chem_smiles=O=C(O)c1sc2cc(-n3c(S)nnc3-c3ccc(Br)c(Cl)c3)ccc2c1Cl measured_endpoint=Kd numeric_result=11
chem_smiles=O=C(O)c1cc2ccc(-n3c(S)nnc3-c3ccc(Cl)c(Cl)c3)cc2s1 measured_endpoint=Kd numeric_result=22
chem_smiles=O=C(O)c1sc2cc(-n3c(-c4ccc5ccccc5c4)n[nH]c3=S)ccc2c1Cl measured_endpoint=Kd numeric_result=43
chem_smiles=O=C(O)c1sc2cc(-n3c(S)nnc3C3CCCCC3)ccc2c1Cl measured_endpoint=Kd numeric_result=25

(I) Cc1cc(-c2nnc(S)n2-c2ccc3c(Cl)c(C(=O)O)sc3c2)ccc1Br
(II) O=C(O)CSc1nnc(-c2sc3ccccc3c2Cl)n1-c1ccc(Cl)c(Cl)c1
Which of the two items, I and II , has the greater recorded Kd? Kindly give the label for the entry you pick.
II
(II: 46 µM, I: 31 µM)

(a) Cc1cccc(-c2n[nH]c(=S)n2-c2ccc3c(Cl)c(C(=O)O)sc3c2)c1
(b) O=C(O)c1sc2cc(-n3c(S)nnc3-c3cccc(Br)c3)ccc2c1Cl
(c) O=C(O)c1sc2cc(-n3c(S)nnc3-c3ccc(Cl)c(Cl)c3)ccc2c1Cl
(d) Cc1ccc2c(Cl)c(-c3nnc(SCC(=O)O)n3-c3ccc(Cl)c(Cl)c3)sc2c1
(e) COc1ccc(-c2nnc(SCC(=O)O)n2-c2ccc(Cl)c(Cl)c2)cc1
Highest Kd first, then in falling order down to the smallest. Write the labels in rank order as requested.
e, a, b, d, c

(A) Cc1ccc(-c2n[nH]c(=S)n2-c2ccc3c(Cl)c(C(=O)O)sc3c2)cc1
(B) O=C(O)c1sc2cc(-n3c(S)nnc3-c3ccc(Br)cc3)ccc2c1Cl
Which of the two items, A and B , has the greater recorded Kd? Kindly give the label for the entry you pick.
A
(A: 92 µM, B: 42 µM)

(P) Cc1ccccc1-c1nnc(S)n1-c1ccc2c(Cl)c(C(=O)O)sc2c1
(Q) O=C(O)c1sc2cc(-n3c(-c4ccc(Cl)c(Br)c4)n[nH]c3=S)ccc2c1Cl
Field: lower recorded Kd (choose P or Q ) Kindly give the label for the entry you pick.
Q

---

# TEST_SYSTEM: Replication protein A 70 kDa DNA-binding subunit (Homo sapiens)
# ASSAY_OVERVIEW: Binding affinity to human RPA70N expressed in Escherichia coli BL21 (DE3) assessed as inhibition of interaction with FITC-Ahx-DFTADDLEELDTLAS-NH2 after 1 hr by fluorescence polarization anisotropy assay
MEASURED_ENDPOINT: pKd
Formally, pKd is defined as -log10 of the concentration c, with c in mol/L.

# input compound: CC(C)C1=C[C@]23CC[C@@H]4[C@](C)(CCC[C@@]4(C)C(=O)O)[C@H]2C[C@@H]1[C@@H](C(=O)O)[C@@H]3C(=O)O ; wanted: its pKd
4.74

---

# TEST_SYSTEM: Replication protein A 70 kDa DNA-binding subunit (Homo sapiens, UniProt P27694)
# Sequence (P27694 whole entry): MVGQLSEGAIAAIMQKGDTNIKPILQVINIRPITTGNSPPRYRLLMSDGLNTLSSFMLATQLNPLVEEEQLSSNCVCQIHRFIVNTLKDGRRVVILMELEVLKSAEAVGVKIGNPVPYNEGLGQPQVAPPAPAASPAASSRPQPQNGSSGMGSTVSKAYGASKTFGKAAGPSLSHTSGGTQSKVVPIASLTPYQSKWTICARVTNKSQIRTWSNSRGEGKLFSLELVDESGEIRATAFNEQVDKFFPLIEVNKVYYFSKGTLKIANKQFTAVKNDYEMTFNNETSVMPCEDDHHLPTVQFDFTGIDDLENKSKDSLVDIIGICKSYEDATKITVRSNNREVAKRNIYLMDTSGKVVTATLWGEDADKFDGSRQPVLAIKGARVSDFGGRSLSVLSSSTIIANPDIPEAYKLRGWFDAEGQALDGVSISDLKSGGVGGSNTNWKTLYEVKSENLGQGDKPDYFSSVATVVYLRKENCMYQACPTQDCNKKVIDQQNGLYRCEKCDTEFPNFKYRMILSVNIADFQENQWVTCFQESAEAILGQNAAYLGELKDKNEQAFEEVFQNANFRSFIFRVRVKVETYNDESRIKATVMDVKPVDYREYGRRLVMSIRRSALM
# ASSAY_OVERVIEW: Binding affinity to human RPA70N assessed as inhibition of interaction with FITC-Ahx-DFTADDLEELDTLAS-NH2 after 1 hr by fluorescence polarization anisotropy assay
MEASURED_ENDPOINT: Kd (µM)

chem_smiles=O=C(O)c1sc2cc(-n3c(S)nnc3-c3ccc(F)cc3)ccc2c1Cl test_system="Replication protein A 70 kDa DNA-binding subunit (Homo sapiens, UniProt P27694)" measured_endpoint=Kd result_units=µM numeric_result=47

(1) O=C(O)c1cc2ccc(-n3c(-c4cc(Cl)cc(Cl)c4)n[nH]c3=S)cc2s1
(2) Clc1ccc(-c2nn[nH]n2)cc1
Which of the two items, 1 and 2 , has the greater recorded Kd? Kindly give the label for the entry you pick.
2
(2: 1850 µM, 1: 35 µM)
